- ASSAY NAME: qHTS assay to identify small molecule agonists of the estrogen related receptor (ERR) signaling pathway from Tox21 library (AID 1224849)
- CONDITION SUMMARY: ERR reporter cell line, ONE-Glo luciferase, 18 h; at 92.4 µM (top of the series)
# if value of activity change, positive = activation reaches -20%, tag T; if it stays below, tag F

>>> print(df.to_string())
                                   compound  category_label
0  CC(C)=CC1C(C(=O)OCN2C(=O)C3=C(CCCC3)C2=O)C1(C)C (stereo not drawn)               F
1      O=[N+]([O-])/N=C1\NCCN1Cc1ccc(Cl)nc1               T
2                           Nc1ccc2ccccc2c1               T
3  N#Cc1nn(-c2c(Cl)cc(C(F)(F)F)cc2Cl)c(N)c1S(=O)C(F)(F)F (stereo not drawn)               F
4  COP(=S)(OC)Oc1ccc(Sc2ccc(OP(=S)(OC)OC)cc2)cc1               F
5                    c1ccc2c(c1)Nc1ccccc1S2               F
6                          NC(=O)CN1CCCC1=O               T
